- assayed target: UniProt:P09917
- test details: Inhibition of 5-LO in A23187-stimulated human HEK293 cells assessed as reduction in 5-LO product level at 1 uM preincubated for 5 mins followed by A23187, arachidonic acid addition and measured after 15 mins by RP-HPLC analysis relative to control
- Format: cell-based
Active and inactive are the calls of the source. The rule behind the calls is not given here.
Hi there, use one of these labels in your reply, thanks! active, inactive

{"molecule": "COc1ccccc1CCOC(=O)/C=C/c1cc(OC)c(O)c(OC)c1", "assigned category": "active"}

# lookup: test call for COc1cc(/C=C/C(=O)OCCc2ccccc2)cc(OC)c1OC
inactive

# lookup: test call for COc1cc(/C=C/C(=O)OCCc2ccccc2)cc(OC)c1OC(C)=O
active

# lookup: test call for CCCOC(=O)/C=C/c1cc(OC)c(O)c(OC)c1
active

# lookup: test call for COc1cc(/C=C/c2nc(CCc3ccccc3)no2)cc(OC)c1O
active

# lookup: test call for CC(c1cc2ccccc2s1)N(O)C(N)=O (stereo unspecified)
active

====

- assayed target: Polyunsaturated fatty acid 5-lipoxygenase (Homo sapiens)
- test details: Inhibition of 5-LO in thapsigargin stimulated human PMNL cells assessed as reduction in 5-LO product level preincubated for 5 mins followed by thapsigargin addition and measured after 15 mins by RP-HPLC analysis
property measured: IC50 (nM)

[A] COc1cc(/C=C/C(=O)OCCc2ccccc2F)cc(OC)c1O
[B] CCCOC(=O)/C=C/c1cc(OC)c(O)c(OC)c1
Field: lower IC50 | Options: A / B State your choice using its label.
A
(A: 240 nM, B: 710 nM)

====

- assayed target: Polyunsaturated fatty acid 5-lipoxygenase (Homo sapiens) (UniProt P09917)
- test details: Inhibition of 5-LO in A23187-stimulated human HEK293 cells assessed as reduction in 5-LO product level at 1 uM preincubated for 5 mins followed by A23187, arachidonic acid addition and measured after 15 mins by RP-HPLC analysis relative to control
- Format: cell-based
Active and inactive are the calls of the source. The calls are words filed in the database; no cut-off is given here.
Hi there, use one of these labels in your reply, thanks! y (active), n (inactive)

{"smiles input": "COc1ccc(OC)c(/C=C/C(=O)OCCc2ccccc2)c1", "assigned category": "n"}
{"smiles input": "C#CCOC(=O)/C=C/c1cc(OC)c(O)c(OC)c1", "assigned category": "y"}
{"smiles input": "COc1cc(/C=C/C(=O)OCCc2ccccc2C)cc(OC)c1O", "assigned category": "y"}
{"smiles input": "COc1cc(/C=C/C(=O)OCCC2CCCCC2)cc(OC)c1O", "assigned category": "y"}
{"smiles input": "COc1cc(/C=C/C(=O)OCCc2cccc(F)c2)cc(OC)c1O", "assigned category": "y"}

Attention now turns to another entry.
# lookup: test call for COc1cc(CCC(=O)OCCc2ccccc2)cc(OC)c1O
y

====

- assayed target: UniProt P09917
- Sequence (P09917 whole entry): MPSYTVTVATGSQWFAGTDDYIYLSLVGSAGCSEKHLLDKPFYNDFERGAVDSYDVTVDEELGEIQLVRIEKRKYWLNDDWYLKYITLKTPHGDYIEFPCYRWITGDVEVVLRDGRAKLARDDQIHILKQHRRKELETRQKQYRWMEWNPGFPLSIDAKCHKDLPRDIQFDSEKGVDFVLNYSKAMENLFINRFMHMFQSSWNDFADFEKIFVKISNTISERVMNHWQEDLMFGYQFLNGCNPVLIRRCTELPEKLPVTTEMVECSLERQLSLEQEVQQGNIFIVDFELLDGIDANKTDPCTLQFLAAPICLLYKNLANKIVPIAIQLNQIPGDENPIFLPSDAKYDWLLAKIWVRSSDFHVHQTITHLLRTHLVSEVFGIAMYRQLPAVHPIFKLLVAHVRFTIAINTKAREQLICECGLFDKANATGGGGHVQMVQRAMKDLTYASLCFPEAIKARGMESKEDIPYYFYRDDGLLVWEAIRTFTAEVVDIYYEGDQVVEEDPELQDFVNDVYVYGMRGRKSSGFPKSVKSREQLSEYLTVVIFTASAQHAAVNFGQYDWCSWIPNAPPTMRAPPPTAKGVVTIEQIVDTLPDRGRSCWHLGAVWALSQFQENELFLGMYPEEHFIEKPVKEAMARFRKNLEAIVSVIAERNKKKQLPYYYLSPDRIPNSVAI
- test details: Inhibition of 5-LO in thapsigargin stimulated human PMNL cells assessed as reduction in 5-LO product level preincubated for 5 mins followed by thapsigargin addition and measured after 15 mins by RP-HPLC analysis
property measured: IC50 (nM)

Examples with answers:
{"smiles input": "COc1cc(/C=C/c2nc(Cc3ccccc3)no2)cc(OC)c1O", "property measured": "IC50", "obs value": 300}
{"smiles input": "COc1cc(/C=C/C(=O)OCCc2ccccc2C(F)(F)F)cc(OC)c1O", "property measured": "IC50", "obs value": 350}
{"smiles input": "COc1ccccc1CCOC(=O)/C=C/c1cc(OC)c(O)c(OC)c1", "property measured": "IC50", "obs value": 250}
{"smiles input": "COc1cc(CCC(=O)CCc2ccccc2)cc(OC)c1O", "property measured": "IC50", "obs value": 420}
{"smiles input": "COc1cc(/C=C/COCCCc2ccccc2)cc(OC)c1O", "property measured": "IC50", "obs value": 560}
{"smiles input": "COc1cc(CCC(=O)OCCc2ccccc2)cc(OC)c1O", "property measured": "IC50", "obs value": 590}
{"smiles input": "COc1cc(/C=C/COCc2ccccc2)cc(OC)c1O", "property measured": "IC50", "obs value": 1100}
{"smiles input": "COc1cc(/C=C/c2nc(CCc3ccccc3)no2)cc(OC)c1O", "property measured": "IC50", "obs value": 270}
{"smiles input": "COc1cccc(CCOC(=O)/C=C/c2cc(OC)c(O)c(OC)c2)c1", "property measured": "IC50", "obs value": 210}
{"smiles input": "COc1cc(CC(=O)OCCc2ccccc2)cc(OC)c1O", "property measured": "IC50", "obs value": 1100}

[P] COc1cc(/C=C/C(=O)NCCc2ccccc2)cc(OC)c1O
[Q] COc1cc(/C=C/C(=O)OCCc2ccccc2)cc(OC)c1OC(C)=O
// which entry has the larger IC50 value, P or Q ? State your choice using its label.
P

====

- assayed target: Polyunsaturated fatty acid 5-lipoxygenase (Homo sapiens) (UniProt P09917)
- test details: Inhibition of 5-LO in A23187-stimulated human HEK293 cells assessed as reduction in 5-LO product level at 1 uM preincubated for 5 mins followed by A23187, arachidonic acid addition and measured after 15 mins by RP-HPLC analysis relative to control
- Type: cell-based
Active and inactive are the calls of the source. The calls are words filed in the database; no cut-off is given here.
Hi there, use one of these labels in your reply, thanks! y = active, n = inactive

Examples from the recorded data:
{"smiles input": "COc1cc(/C=C/C(=O)OCCc2ccccc2)cc(OC)c1O", "assigned category": "y"}
{"smiles input": "COc1cc(/C=C/COCCCc2ccccc2)cc(OC)c1O", "assigned category": "y"}
{"smiles input": "COc1cccc(/C=C/C(=O)OCCc2ccccc2)c1OC", "assigned category": "n"}
{"smiles input": "COc1cc(/C=C/C(=O)OCCCc2ccccc2)cc(OC)c1O", "assigned category": "y"}
{"smiles input": "CCOC(=O)/C=C/c1cc(OC)c(O)c(OC)c1", "assigned category": "n"}
{"smiles input": "COc1cc(C(=O)OCCc2ccccc2)cc(OC)c1O", "assigned category": "n"}
{"smiles input": "COc1cc(/C=C/C(=O)CCc2ccccc2)cc(OC)c1O", "assigned category": "y"}
{"smiles input": "COc1cc(/C=C/c2nc(Cc3ccccc3)no2)cc(OC)c1O", "assigned category": "y"}

# lookup: test call for COc1cccc(CCOC(=O)/C=C/c2cc(OC)c(O)c(OC)c2)c1
y

====

- assayed target: Polyunsaturated fatty acid 5-lipoxygenase (Homo sapiens)
- test details: Inhibition of 5-LO in thapsigargin stimulated human PMNL cells assessed as reduction in 5-LO product level preincubated for 5 mins followed by thapsigargin addition and measured after 15 mins by RP-HPLC analysis
pIC50: −log10 of the molar value.
property measured: pIC50

{"smiles input": "COc1cc(/C=C/C(=O)OCCc2cccc(F)c2)cc(OC)c1O", "assayed target": "Polyunsaturated fatty acid 5-lipoxygenase (Homo sapiens)", "pIC50": 6.64}
{"smiles input": "COc1cc(/C=C/C(=O)OCCc2cccc(C(F)(F)F)c2)cc(OC)c1O", "assayed target": "Polyunsaturated fatty acid 5-lipoxygenase (Homo sapiens)", "pIC50": 6.70}
{"smiles input": "COc1cc(/C=C/C(=O)OCCc2cccc(C)c2)cc(OC)c1O", "assayed target": "Polyunsaturated fatty acid 5-lipoxygenase (Homo sapiens)", "pIC50": 6.70}
{"smiles input": "COc1cc(/C=C/C(=O)OCCCc2ccccc2)cc(OC)c1O", "assayed target": "Polyunsaturated fatty acid 5-lipoxygenase (Homo sapiens)", "pIC50": 6.47}
{"smiles input": "COc1cc(/C=C/C(=O)OCCc2ccccc2C)cc(OC)c1O", "assayed target": "Polyunsaturated fatty acid 5-lipoxygenase (Homo sapiens)", "pIC50": 6.62}

meta.source: ChEMBL document CHEMBL5038646
